# assayedTarget: RAG1 central domain mutant CD-DD (Mus musculus, UniProt P15919, D600A/D708A)
# Construct: central domain (amino acids 528–760) with point mutations D600A/D708A
# Sequence (P15919 528-760 D600A/D708A): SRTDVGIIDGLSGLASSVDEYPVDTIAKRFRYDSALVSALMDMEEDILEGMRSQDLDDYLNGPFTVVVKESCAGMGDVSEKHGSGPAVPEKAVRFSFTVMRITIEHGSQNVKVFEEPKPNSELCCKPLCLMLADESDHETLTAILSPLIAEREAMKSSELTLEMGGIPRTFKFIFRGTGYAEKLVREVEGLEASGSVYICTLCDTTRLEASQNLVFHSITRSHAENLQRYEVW
# experiment: biolayer interferometry (biotinylated CD-DD on SSA sensors)
measure: Kd (µM)
Express the result in µM but write the number alone.

Which value of Kd has been reported for COc1cc2c(cc1Cc1cccc(Cl)c1F)c(=O)c(C(=O)O)cn2[C@H](CO)C(C)C [EVG, Elvitegravir] in the records?
43.7

----------
# assayedTarget: RAG1 central domain (Mus musculus)
# Sequence (P15919 528-760): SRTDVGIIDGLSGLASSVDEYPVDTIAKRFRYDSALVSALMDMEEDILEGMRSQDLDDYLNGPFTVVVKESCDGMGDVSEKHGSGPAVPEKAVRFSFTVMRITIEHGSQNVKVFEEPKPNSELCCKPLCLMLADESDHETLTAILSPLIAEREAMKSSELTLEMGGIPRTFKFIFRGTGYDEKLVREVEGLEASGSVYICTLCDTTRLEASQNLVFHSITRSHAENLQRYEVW
measure: Kd (µM)
Please give a number only; it is taken to be in µM.

Could you tell me which Kd is on file for COc1cc2c(cc1Cc1cccc(Cl)c1F)c(=O)c(C(=O)O)cn2[C@H](CO)C(C)C [EVG, Elvitegravir] ?
32.5

Source listed as paper PMC5520896.
